# system_tested: Etv5 Ets domain (human, UniProt P41161 365-462)
# Sequence (P41161 365-462): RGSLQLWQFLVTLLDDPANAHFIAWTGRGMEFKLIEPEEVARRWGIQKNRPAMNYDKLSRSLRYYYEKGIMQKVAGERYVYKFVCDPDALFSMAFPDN
# assay_remarks: EMSA; 10 mM TCEP; probe 0.1 nM (Table 3) or 0.2 nM (Fig. 9); EMSA: 50 mM Tris-HCl pH 7.5, 50 mM NaCl, 2 mM MgCl2, 0.01% Tween 20, 5% glycerol, 1 h at room temperature; proteins reduced with 10 mM TCEP unless stated; 10% native PAGE
# experimental_setup: protein: recombinant; tags: N-terminal His6 removed by TEV (leaves SM); blunt
reported_property: Kd (nM)
Numbers only, in nM.

Query: What value of Kd has been recorded for this entry: Etv1ALF/Etv1ALR EMSA probe (dsDNA) DNA 1: ATCTCACCGGAAGTGTAGCA DNA 2: TGCTACACTTCCGGTGAGAT
Reply: 1.16
